Values were extracted from the supplement of paper PMC9112550.

System: Escherichia coli TOP10
Test: shrunken log2 fold change of peptide-encoding DNA abundance (4.5 h post-induction vs induction); higher = less antimicrobial activity (less host growth inhibition)
Conditions: time post-induction: 4.5 h; library: site-saturation at positions 5, 18, 19, 20
endpointName: shrunken log2 fold change
Form: value (number only, do not type unit).

Value lookup for shrunken log2 fold change; key = RRIRQRPPRLPRPRPRPTFRPRP
-0.232

# repeat for RRIRMRPPRLPRPRPRPQHIPRP
-0.103

# repeat for RRIRLRPPRLPRPRPRPVSEPRP
0.172

# repeat for RRIRVRPPRLPRPRPRPCKRPRP
-0.196

====

Tested on: Escherichia coli TOP10
Assay: shrunken log2 fold change of peptide-encoding DNA abundance (4.5 h post-induction vs induction); higher = less antimicrobial activity (less host growth inhibition)
Conditions: time post-induction: 4.5 h; library: site-saturation at positions 5, 18, 19, 20
Please mark y if the recorded shrunken log2 fold change is equal to or greater than -0.1, and n if it falls below.

RRIRLRPPRLPRPRPRPEFYPRP y
RRIRERPPRLPRPRPRPRVAPRP y
RRIRRRPPRLPRPRPRPNNVPRP n
RRIRFRPPRLPRPRPRPWILPRP n
RRIRNRPPRLPRPRPRPTHSPRP n

Evaluate RRIRFRPPRLPRPRPRPFTDPRP : shrunken log2 fold change at minimum -0.1?
y

====

We begin with a simple list: items and their reported shrunken log2 fold change.
System: Escherichia coli TOP10
Assay: shrunken log2 fold change of peptide-encoding DNA abundance (4.5 h post-induction vs induction); higher = less antimicrobial activity (less host growth inhibition)
Settings: time post-induction: 4.5 h; library: site-saturation at positions 5, 18, 19, 20
Form: value (number only, do not type unit).

Worked examples, 3 sequences total:
RRIRSRPPRLPRPRPRPFTVPRP -0.0157
RRIRMRPPRLPRPRPRPHFRPRP 0.0286
RRIRARPPRLPRPRPRPNEAPRP 0.269

Value lookup for shrunken log2 fold change; key = RRIRRRPPRLPRPRPRPRRTPRP
0.46

# repeat for RRIRNRPPRLPRPRPRPPGKPRP
0.484

# repeat for RRIRTRPPRLPRPRPRPHFSPRP
0.0329

# repeat for RRIRTRPPRLPRPRPRPRLFPRP
0.207

# repeat for RRIRVRPPRLPRPRPRPWACPRP
-0.191

# repeat for RRIRSRPPRLPRPRPRPEFIPRP
0.162

# repeat for RRIRERPPRLPRPRPRPVIAPRP
-0.205

# repeat for RRIRVRPPRLPRPRPRPLMKPRP
-0.269

# repeat for RRIRIRPPRLPRPRPRPNETPRP
-0.0216

# repeat for RRIRKRPPRLPRPRPRPQCVPRP
0.117

# repeat for RRIRTRPPRLPRPRPRPFQSPRP
0.00942

# repeat for RRIRNRPPRLPRPRPRPVFWPRP
0.219

====

Test system: Escherichia coli TOP10
Assay: shrunken log2 fold change of peptide-encoding DNA abundance (4.5 h post-induction vs induction); higher = less antimicrobial activity (less host growth inhibition)
Conditions: time post-induction: 4.5 h; library: site-saturation at positions 5, 18, 19, 20
We begin with a simple list: items and their reported shrunken log2 fold change.
Form: value (number only, do not type unit).

Worked examples, 5 sequences total:
RRIRWRPPRLPRPRPRPRHGPRP -0.192
RRIRLRPPRLPRPRPRPCDHPRP -0.239
RRIRLRPPRLPRPRPRPPPMPRP 0.966
RRIRKRPPRLPRPRPRPKHFPRP 0.024
RRIRQRPPRLPRPRPRPAVTPRP 0.167

Lab note: need shrunken log2 fold change with Escherichia coli TOP10 for entry RRIRSRPPRLPRPRPRPDKLPRP , please look it up.
-0.266

# repeat for RRIRYRPPRLPRPRPRPYIYPRP
-2.06

# repeat for RRIRIRPPRLPRPRPRPKTAPRP
-0.143

# repeat for RRIRYRPPRLPRPRPRPRHCPRP
-0.251

# repeat for RRIRQRPPRLPRPRPRPFHHPRP
-0.0143

# repeat for RRIRTRPPRLPRPRPRPSTFPRP
-0.49

# repeat for RRIRFRPPRLPRPRPRPCWWPRP
0.696

# repeat for RRIRSRPPRLPRPRPRPLCVPRP
-0.143

# repeat for RRIRIRPPRLPRPRPRPHAVPRP
-0.12

# repeat for RRIRHRPPRLPRPRPRPVVLPRP
-0.298

# repeat for RRIRIRPPRLPRPRPRPGEEPRP
-0.0165

# repeat for RRIRARPPRLPRPRPRPGPMPRP
0.676

# repeat for RRIRFRPPRLPRPRPRPQLYPRP
-0.588

# repeat for RRIRHRPPRLPRPRPRPMFIPRP
-0.0886

# repeat for RRIRHRPPRLPRPRPRPYNPPRP
-1.07

# repeat for RRIRRRPPRLPRPRPRPWMAPRP
0.0421

# repeat for RRIRIRPPRLPRPRPRPKHYPRP
-0.44

# repeat for RRIRARPPRLPRPRPRPSTRPRP
0.23

====

We begin with a simple list: items and their reported shrunken log2 fold change.
System: Escherichia coli TOP10
Experiment: shrunken log2 fold change of peptide-encoding DNA abundance (4.5 h post-induction vs induction); higher = less antimicrobial activity (less host growth inhibition)
Details: time post-induction: 4.5 h; library: site-saturation at positions 5, 18, 19, 20
Form: value (number only, do not type unit).

Worked examples, 2 sequences total:
RRIRERPPRLPRPRPRPYPSPRP -0.967
RRIRSRPPRLPRPRPRPGHPPRP 0.0456

Lab note: need shrunken log2 fold change with Escherichia coli TOP10 for entry RRIRMRPPRLPRPRPRPTVIPRP , please look it up.
-0.271

# repeat for RRIRRRPPRLPRPRPRPFRWPRP
0.279

# repeat for RRIRERPPRLPRPRPRPDDYPRP
-0.118

# repeat for RRIRWRPPRLPRPRPRPDRYPRP
-0.0301

# repeat for RRIRLRPPRLPRPRPRPSESPRP
-0.244

# repeat for RRIRDRPPRLPRPRPRPRPWPRP
0.25

# repeat for RRIRDRPPRLPRPRPRPNDFPRP
0.239

# repeat for RRIRQRPPRLPRPRPRPRVWPRP
0.163

# repeat for RRIRQRPPRLPRPRPRPMAHPRP
0.00446

====

Test system: Escherichia coli TOP10
Assay: shrunken log2 fold change of peptide-encoding DNA abundance (4.5 h post-induction vs induction); higher = less antimicrobial activity (less host growth inhibition)
Settings: time post-induction: 4.5 h; library: site-saturation at positions 5, 18, 19, 20
endpointName: shrunken log2 fold change
Form: value (number only, do not type unit).

RRIRIRPPRLPRPRPRPQTMPRP -0.0804
RRIRDRPPRLPRPRPRPGLFPRP 0.949
RRIRSRPPRLPRPRPRPFCHPRP -0.162
RRIRYRPPRLPRPRPRPLLAPRP -0.197
RRIRKRPPRLPRPRPRPGPNPRP 0.795
RRIRYRPPRLPRPRPRPNGMPRP -0.0465

Value lookup for shrunken log2 fold change; key = RRIRQRPPRLPRPRPRPFMYPRP
0.000979

# repeat for RRIRQRPPRLPRPRPRPWRHPRP
0.0151

# repeat for RRIRERPPRLPRPRPRPQDRPRP
-0.167

# repeat for RRIRLRPPRLPRPRPRPLANPRP
-0.00613

# repeat for RRIRCRPPRLPRPRPRPPQTPRP
0.665

# repeat for RRIRPRPPRLPRPRPRPCNHPRP
-0.227

# repeat for RRIRERPPRLPRPRPRPTIMPRP
-0.959

# repeat for RRIRYRPPRLPRPRPRPLLEPRP
-0.17

# repeat for RRIRFRPPRLPRPRPRPNCIPRP
-0.342

# repeat for RRIRQRPPRLPRPRPRPRGMPRP
0.143

====

Tested on: Escherichia coli TOP10;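 further: peptides expressed intracellularly from a pBAD plasmid library in pooled LB shake-flask culture, induced with 0.3% L-arabinose, DNA abundance read by NGS, three biological replicates, DESeq2 with apeglm shrinkage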
Assay: shrunken log2 fold change of peptide-encoding DNA abundance (4.5 h post-induction vs induction); higher = less antimicrobial activity (less host growth inhibition)
Conditions: time post-induction: 4.5 h; library: site-saturation at positions 5, 18, 19, 20
We begin with a simple list: items and their reported shrunken log2 fold change.
Form: value (number only, do not type unit).

RRIRDRPPRLPRPRPRPPEDPRP 0.402
RRIRGRPPRLPRPRPRPLGCPRP 1.27
RRIRTRPPRLPRPRPRPYYWPRP -0.0825
RRIRLRPPRLPRPRPRPQHKPRP -0.0846

Value lookup for shrunken log2 fold change; key = RRIRRRPPRLPRPRPRPISEPRP
0.00118

# repeat for RRIRIRPPRLPRPRPRPWHEPRP
0.0173

# repeat for RRIRGRPPRLPRPRPRPRDDPRP
0.536

# repeat for RRIRARPPRLPRPRPRPKRCPRP
0.079

# repeat for RRIRIRPPRLPRPRPRPCAFPRP
-0.1

# repeat for RRIRTRPPRLPRPRPRPHPDPRP
-0.00834

# repeat for RRIRARPPRLPRPRPRPWRDPRP
0.225

# repeat for RRIRLRPPRLPRPRPRPWWFPRP
-0.21
